Origin of measurements: patent US10562857B2

# TARGET OR TEST SYSTEM: Cav3.2 channel (Homo sapiens, UniProt O95180)
# Construct: expressed in transfected cells; host or cells: HEK-293, tetracycline inducible expression system (Invitrogen)
# Sequence (O95180 whole entry): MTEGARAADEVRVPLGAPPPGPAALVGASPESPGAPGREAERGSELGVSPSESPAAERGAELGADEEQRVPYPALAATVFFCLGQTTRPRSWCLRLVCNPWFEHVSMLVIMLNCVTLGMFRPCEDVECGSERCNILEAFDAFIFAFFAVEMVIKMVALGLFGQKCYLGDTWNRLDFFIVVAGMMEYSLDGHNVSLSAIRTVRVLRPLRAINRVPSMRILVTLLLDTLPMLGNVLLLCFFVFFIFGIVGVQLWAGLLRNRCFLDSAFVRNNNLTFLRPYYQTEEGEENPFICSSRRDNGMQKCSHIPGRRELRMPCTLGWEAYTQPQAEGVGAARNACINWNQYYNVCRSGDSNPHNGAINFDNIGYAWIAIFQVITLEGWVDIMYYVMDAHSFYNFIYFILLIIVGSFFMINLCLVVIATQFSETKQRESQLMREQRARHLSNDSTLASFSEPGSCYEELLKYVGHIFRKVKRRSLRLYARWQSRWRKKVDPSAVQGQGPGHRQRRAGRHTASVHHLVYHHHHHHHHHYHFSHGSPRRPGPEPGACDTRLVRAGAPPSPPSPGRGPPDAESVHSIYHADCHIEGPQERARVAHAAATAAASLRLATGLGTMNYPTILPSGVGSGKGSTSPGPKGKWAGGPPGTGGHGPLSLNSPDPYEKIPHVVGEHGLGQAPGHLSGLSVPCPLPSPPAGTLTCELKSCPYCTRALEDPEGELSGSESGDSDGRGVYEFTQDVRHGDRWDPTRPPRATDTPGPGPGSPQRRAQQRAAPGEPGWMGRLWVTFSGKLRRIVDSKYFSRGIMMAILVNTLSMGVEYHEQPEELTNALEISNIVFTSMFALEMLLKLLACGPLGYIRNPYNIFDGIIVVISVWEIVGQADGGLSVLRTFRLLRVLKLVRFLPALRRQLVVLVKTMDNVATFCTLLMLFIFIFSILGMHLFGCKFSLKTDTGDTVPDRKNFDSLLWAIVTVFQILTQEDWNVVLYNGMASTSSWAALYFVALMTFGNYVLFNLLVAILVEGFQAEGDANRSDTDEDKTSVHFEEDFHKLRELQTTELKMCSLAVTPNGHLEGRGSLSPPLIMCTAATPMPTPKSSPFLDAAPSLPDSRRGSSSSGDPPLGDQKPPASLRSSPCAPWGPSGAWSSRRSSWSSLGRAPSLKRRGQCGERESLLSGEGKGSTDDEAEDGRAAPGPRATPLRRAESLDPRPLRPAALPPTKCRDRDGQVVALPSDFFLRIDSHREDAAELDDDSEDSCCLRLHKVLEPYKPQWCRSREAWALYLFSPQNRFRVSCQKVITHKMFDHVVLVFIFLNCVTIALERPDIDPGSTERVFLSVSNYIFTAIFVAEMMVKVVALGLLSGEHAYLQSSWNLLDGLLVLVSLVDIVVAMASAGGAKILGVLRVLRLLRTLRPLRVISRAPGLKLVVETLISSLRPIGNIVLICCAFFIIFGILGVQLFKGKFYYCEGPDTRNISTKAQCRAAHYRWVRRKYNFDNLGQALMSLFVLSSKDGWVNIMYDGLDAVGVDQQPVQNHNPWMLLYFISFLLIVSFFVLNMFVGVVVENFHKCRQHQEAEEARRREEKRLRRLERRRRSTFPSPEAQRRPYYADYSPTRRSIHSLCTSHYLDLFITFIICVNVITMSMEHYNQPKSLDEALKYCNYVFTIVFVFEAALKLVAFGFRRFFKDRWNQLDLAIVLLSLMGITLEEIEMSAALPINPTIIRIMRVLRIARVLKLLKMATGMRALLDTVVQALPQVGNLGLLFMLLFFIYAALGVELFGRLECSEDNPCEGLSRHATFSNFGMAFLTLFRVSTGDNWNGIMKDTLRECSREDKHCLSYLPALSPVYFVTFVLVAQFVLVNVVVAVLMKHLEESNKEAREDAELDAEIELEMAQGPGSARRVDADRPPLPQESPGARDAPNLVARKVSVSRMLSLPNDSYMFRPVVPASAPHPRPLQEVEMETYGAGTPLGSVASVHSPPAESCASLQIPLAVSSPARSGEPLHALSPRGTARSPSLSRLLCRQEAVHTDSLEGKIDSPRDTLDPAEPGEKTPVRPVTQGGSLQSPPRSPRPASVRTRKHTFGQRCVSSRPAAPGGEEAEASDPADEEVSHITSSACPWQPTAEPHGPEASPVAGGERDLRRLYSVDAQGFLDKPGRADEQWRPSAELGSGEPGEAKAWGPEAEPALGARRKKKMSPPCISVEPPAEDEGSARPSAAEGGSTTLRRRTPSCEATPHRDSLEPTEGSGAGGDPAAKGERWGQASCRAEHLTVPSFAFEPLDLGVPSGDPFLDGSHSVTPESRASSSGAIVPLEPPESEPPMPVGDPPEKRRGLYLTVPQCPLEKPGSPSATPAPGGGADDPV
# ASSAY NOTES: Whole-cell patch clamp of T-type Cav3.2 channel expressed in HEK293 cells
# Type: cell-based
# TEST SETTINGS: Table 1; tested at at least 4 concentrations; read-out: IC50
READOUT: IC50 (nM)
Express it in nM; write the number only.

O=C(NC1CC12CCN(CCCc1ccccc1)CC2)c1cc(Cl)cc(Cl)c1 (stereo not shown); 40
CC(C)(C)C(O)CN1CCC2(CC1)CC2NC(=O)c1cc(Cl)cc(Cl)c1 (stereo not shown); 220
CC(C)(C)NC(=O)CN1CCC2(CC1)C[C@H]2NC(=O)c1cc(Cl)cc(Cl)c1 (single isomer, unassigned); 60

Below: the item to evaluate.
(Q) So what's the measured IC50 for this one? CC(C)(C)NC(=O)CN1CCC2(CC1)C[C@@H]2NC(=O)c1cc(Cl)cc(Cl)c1 (single isomer, unassigned)
(A) 190

====

# TARGET OR TEST SYSTEM: Cav3.2 channel (Homo sapiens, UniProt O95180)
# Construct: expressed in transfected cells; host or cells: HEK-293, tetracycline inducible expression system (Invitrogen)
# ASSAY NOTES: Whole-cell patch clamp of T-type Cav3.2 channel expressed in HEK293 cells
# Format: cell-based
# TEST SETTINGS: Table 1; tested at at least 4 concentrations; read-out: IC50
READOUT: pIC50
Note on pIC50: it is the negative log10 of concentration, concentration in mol/L.

# example entries with known answers
CC(C)(C)CCN1CCC2(CC1)CC2NC(=O)c1ccc(Cl)c(Cl)c1 (stereo not shown) [Example 7]; 6.92
CC(C)(C)C(=O)CN1CCC2(CC1)CC2NC(=O)c1cc(Cl)cc(Cl)c1 (stereo not shown) [Example 49]; 6.80
CC(C)(C)CCN1CCC2(CC1)CC2NC(=O)Cc1cc(C(F)(F)F)cc(C(F)(F)F)c1 (stereo not shown) [Example 31]; 7.10

Below: the item to evaluate.
(Q) So what's the measured pIC50 for this one? Cc1cc(C)cc(C(=O)NC2CC23CCN(CCC(C)(C)C)CC3)c1 (stereo not shown) [Example 32]
(A) 6.54

====

# TARGET OR TEST SYSTEM: hERG channel (Homo sapiens)
# Construct: expressed in transfected cells; host or cells: CHO
# Sequence (Q12809 whole entry): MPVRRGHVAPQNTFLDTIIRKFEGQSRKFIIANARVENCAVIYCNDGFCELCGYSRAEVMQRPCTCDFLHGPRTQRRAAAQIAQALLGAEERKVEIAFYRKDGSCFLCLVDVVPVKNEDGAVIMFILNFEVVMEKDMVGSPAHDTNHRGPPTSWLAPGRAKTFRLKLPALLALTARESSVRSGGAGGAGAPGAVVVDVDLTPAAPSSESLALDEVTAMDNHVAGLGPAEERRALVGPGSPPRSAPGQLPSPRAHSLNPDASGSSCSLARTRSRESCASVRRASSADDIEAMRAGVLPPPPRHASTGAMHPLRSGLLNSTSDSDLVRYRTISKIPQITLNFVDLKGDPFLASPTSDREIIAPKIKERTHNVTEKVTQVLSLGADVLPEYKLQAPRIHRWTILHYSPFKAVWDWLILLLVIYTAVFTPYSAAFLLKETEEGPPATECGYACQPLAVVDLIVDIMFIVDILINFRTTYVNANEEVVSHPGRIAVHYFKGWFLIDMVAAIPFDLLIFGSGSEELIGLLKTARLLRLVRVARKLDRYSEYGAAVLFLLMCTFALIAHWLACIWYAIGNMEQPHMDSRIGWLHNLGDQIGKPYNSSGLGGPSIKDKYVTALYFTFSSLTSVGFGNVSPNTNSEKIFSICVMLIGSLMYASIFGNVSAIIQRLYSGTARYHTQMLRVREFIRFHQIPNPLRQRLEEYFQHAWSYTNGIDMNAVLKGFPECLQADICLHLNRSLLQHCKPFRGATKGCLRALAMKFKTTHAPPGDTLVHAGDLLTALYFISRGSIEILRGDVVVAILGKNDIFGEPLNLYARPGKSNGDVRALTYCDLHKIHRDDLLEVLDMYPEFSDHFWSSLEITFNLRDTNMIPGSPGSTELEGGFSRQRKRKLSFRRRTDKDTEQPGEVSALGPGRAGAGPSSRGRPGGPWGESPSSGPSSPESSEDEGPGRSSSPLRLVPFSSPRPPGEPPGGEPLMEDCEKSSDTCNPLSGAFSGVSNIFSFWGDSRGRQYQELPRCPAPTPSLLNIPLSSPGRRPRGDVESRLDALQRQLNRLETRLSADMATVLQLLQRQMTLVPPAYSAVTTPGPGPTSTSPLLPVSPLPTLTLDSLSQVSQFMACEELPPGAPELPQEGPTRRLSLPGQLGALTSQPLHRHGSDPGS
# ASSAY NOTES: hERG patch clamp in hERG-expressing CHO cells
# Assay type: cell-based
# TEST SETTINGS: Table 2; read-out: hERG IC50
Some compounds, each annotated with its measured pIC50.
Note on pIC50: it is the negative log10 of concentration, concentration in mol/L.

CC(C)(C)CCN1CCC2(CC1)C[C@H]2NC(=O)c1cc(C(F)(F)F)ccc1Cl (single isomer, unassigned); 5.74
CC(C)(C)NC(=O)CN1CCC2(CC1)C[C@H]2NC(=O)c1cc(F)cc(C(F)(F)F)c1 (single isomer, unassigned); 5.10

Below: the item to evaluate.
(Q) So what's the measured pIC50 for this one? CC(C)(C)NC(=O)CN1CCC2(CC1)C[C@H]2NC(=O)c1cc(F)cc(Cl)c1 (single isomer, unassigned)
(A) 4.80
